- system: W156F DaCld (Dechloromonas aromatica, UniProt Q47CX0, W190F)
- Sequence (Q47CX0 32-282 W190F): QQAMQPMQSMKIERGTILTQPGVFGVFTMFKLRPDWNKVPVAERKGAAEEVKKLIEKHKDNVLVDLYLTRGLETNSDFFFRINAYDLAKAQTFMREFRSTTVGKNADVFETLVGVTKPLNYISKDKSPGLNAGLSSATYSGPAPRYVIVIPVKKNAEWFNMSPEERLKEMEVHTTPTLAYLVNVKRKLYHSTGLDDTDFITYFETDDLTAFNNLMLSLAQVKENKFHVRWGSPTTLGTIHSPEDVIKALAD
- experimental-protocol: Equilibrium binding of heme ligands
- test-conditions: pH 7
readout-label: Kd (µM)
Reply numerically in µM, unit not repeated.

Q. Fill in reported Kd for this entry: [N-]=[N+]=[N-] [N3^-, azide]
A. 34.5

* * *

- system: DaCld(W227F) (Dechloromonas aromatica, UniProt Q47CX0, W261F)
- Sequence (Q47CX0 32-282 W261F): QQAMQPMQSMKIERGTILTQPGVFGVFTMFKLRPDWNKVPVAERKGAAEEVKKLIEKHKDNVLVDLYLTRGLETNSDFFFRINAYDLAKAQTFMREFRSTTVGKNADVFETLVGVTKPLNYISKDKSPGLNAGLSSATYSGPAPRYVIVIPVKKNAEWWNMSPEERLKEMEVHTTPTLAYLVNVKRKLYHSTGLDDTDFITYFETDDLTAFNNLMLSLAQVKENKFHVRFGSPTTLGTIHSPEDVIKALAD
- experimental-protocol: Equilibrium binding of heme ligands
- test-conditions: pH 7
readout-label: pKd
Value format note: pKd is -log10 of concentration (mol/L); just state the number.

Q. Answer with the recorded pKd of [N-]=[N+]=[N-] [N3^-, azide] only.
A. 5.15

* * *

- system: W156F DaCld (Dechloromonas aromatica, UniProt Q47CX0, W190F)
- experimental-protocol: Equilibrium binding of heme ligands
readout-label: pKd
In simple prose, pKd is minus the logarithm base ten of a concentration in moles per litre.

Q. Indicate its recorded pKd; the compound in question is c1c[nH]cn1 [Imidazole]
A. 4.58
